- Test system: Rhodococcus corynebacterioides
- Assay overview: Antimicrobial activity against Corynebacterium rubrum NCIM 2252 at 1000 ug/disk after 24 hrs by disk diffusion method
- Assay type: functional
- Test settings: Rhodococcoides corynebacterioides
Active and inactive are the calls of the source. The calls are words filed in the database; no cut-off is given here.
Measure name: diameter of the inhibition zone (DIZ)

compound="O=C1CCCC2=C1C(c1ccccc1)c1ccc3ccccc3c1N2 (stereo not given)" reported_value=inactive
compound="CC1(C)CC(=O)C2=C(C1)Nc1c(ccc3ccccc13)C2c1ccccc1Cl (stereo not given)" reported_value=inactive
compound="CC1(C)CC(=O)C2=C(C1)Nc1c(ccc3ccccc13)C2c1ccccc1 (stereo not given)" reported_value=inactive
compound="CC1(C)CC(=O)C2=C(C1)Nc1c(ccc3ccccc13)C2c1ccccc1O (stereo not given)" reported_value=inactive
compound="O=C1CCCC2=C1C(c1ccccc1O)c1ccc3ccccc3c1N2 (stereo not given)" reported_value=inactive

###

// reported zone of inhibition at 1000 µg/disc for each item listed
- Test system: Escherichia coli
- Assay overview: Antimicrobial activity against Escherichia coli NCIM 2065 at 1000 ug/disk after 24 hrs by disk diffusion method
- Assay type: functional
- Test settings: NCIM 2065, 24 h, read-out: DIZ
Measure name: zone of inhibition at 1000 µg/disc (mm)

compound="CC1(C)CC(=O)C2=C(C1)Nc1c(ccc3ccccc13)C2c1ccc(O)cc1 (centres undefined)" measure_name="zone of inhibition at 1000 µg/disc" unit_tag=mm reported_value=12
compound="CC1(C)CC(=O)C2=C(C1)Nc1c(ccc3ccccc13)C2c1cccc([N+](=O)[O-])c1 (centres undefined)" measure_name="zone of inhibition at 1000 µg/disc" unit_tag=mm reported_value=15
compound="O=C1CCCC2=C1C(c1ccccc1)c1ccc3ccccc3c1N2 (centres undefined)" measure_name="zone of inhibition at 1000 µg/disc" unit_tag=mm reported_value=9
compound="O=C1CCCC2=C1C(c1ccccc1O)c1ccc3ccccc3c1N2 (centres undefined)" measure_name="zone of inhibition at 1000 µg/disc" unit_tag=mm reported_value=9

###

- Tested on: Rhodotorula mucilaginosa
- Assay overview: Antimicrobial activity against Rhodotorula rubra NCIM 3174 after 72 hrs by serial dilution method
- Assay type: functional
- Test settings: NCIM 3174, 72 h
Attribute: MIC
Measure name: MIC (µg/mL)

compound="O=C1CCCC2=C1C(c1ccccc1)c1ccc3ccccc3c1N2 (centres undefined)" measure_name=MIC reported_value=31.2
compound="O=C1CCCC2=C1C(c1ccc(O)cc1)c1ccc3ccccc3c1N2 (centres undefined)" measure_name=MIC reported_value=7.8
compound="CC1(C)CC(=O)C2=C(C1)Nc1c(ccc3ccccc13)C2c1cccc(Cl)c1 (centres undefined)" measure_name=MIC reported_value=62.5
compound="O=C1CCCC2=C1C(c1cccc([N+](=O)[O-])c1)c1ccc3ccccc3c1N2 (centres undefined)" measure_name=MIC reported_value=3.9
compound="CC1(C)CC(=O)C2=C(C1)Nc1c(ccc3ccccc13)C2c1ccc(Cl)cc1 (centres undefined)" measure_name=MIC reported_value=15.6
compound="CC1(C)CC(=O)C2=C(C1)Nc1c(ccc3ccccc13)C2c1ccccc1 (centres undefined)" measure_name=MIC reported_value=31.2
compound="CC1(C)CC(=O)C2=C(C1)Nc1c(ccc3ccccc13)C2c1ccc(O)cc1 (centres undefined)" measure_name=MIC reported_value=3.9
compound="O=C1CCCC2=C1C(c1cccc(Cl)c1)c1ccc3ccccc3c1N2 (centres undefined)" measure_name=MIC reported_value=62.5
compound="O=C1CCCC2=C1C(c1ccc(Cl)cc1)c1ccc3ccccc3c1N2 (centres undefined)" measure_name=MIC reported_value=3.9
compound="O=C1CCCC2=C1C(c1ccccc1Cl)c1ccc3ccccc3c1N2 (centres undefined)" measure_name=MIC reported_value=3.9
compound="CC1(C)CC(=O)C2=C(C1)Nc1c(ccc3ccccc13)C2c1ccccc1O (centres undefined)" measure_name=MIC reported_value=7.8
compound="CC1(C)CC(=O)C2=C(C1)Nc1c(ccc3ccccc13)C2c1cccc([N+](=O)[O-])c1 (centres undefined)" measure_name=MIC reported_value=7.8
compound="CC1(C)CC(=O)C2=C(C1)Nc1c(ccc3ccccc13)C2c1ccccc1Cl (centres undefined)" measure_name=MIC reported_value=15.6
compound="O=C1CCCC2=C1C(c1ccccc1O)c1ccc3ccccc3c1N2 (centres undefined)" measure_name=MIC reported_value=15.6
